Assay Remarks: Solubility of the compound in DMSO up to 900 uM
Format: physicochemical
Experimental Endpoint: solubility

# Cpd Smiles, Measured
rows = [
    ("CO[C@@H]1O[C@H](CO)[C@H](O)[C@H](OCc2cc(-c3cccc(-c4ccccc4)c3)nc(N)n2)[C@H]1O", "Soluble"),
    ("CO[C@@H]1O[C@H](CO)[C@H](O)[C@H](OCc2cc(-c3ccccc3)nc(N)n2)[C@H]1O", "Soluble"),
    ("CO[C@@H]1O[C@H](CO)[C@H](O)[C@H](OCc2cc(-c3cccc(Cl)c3)nc(N)n2)[C@H]1O", "Soluble"),
    ("CO[C@@H]1O[C@H](CO)[C@H](O)[C@H](OCc2cc(-c3ccccc3F)nc(N)n2)[C@H]1O", "Soluble"),
    ("CO[C@@H]1O[C@H](CO)[C@H](O)[C@H](OCc2cc(-c3ccc(F)cc3)nc(N)n2)[C@H]1O", "Soluble"),
    ("CO[C@@H]1O[C@H](CO)[C@H](O)[C@H](OCc2cc(-c3ccc(-c4ccccc4)cc3)nc(N)n2)[C@H]1O", "Soluble"),
]

* * *

Assay Remarks: Solubility of the compound in DMSO at >[…] uM
Type: physicochemical
Experimental Endpoint: solubility

# Cpd Smiles, Measured
rows = [
    ("CO[C@@H]1O[C@H](CO)[C@H](O)[C@H](OCc2cc(-c3cccc(F)c3)nc(N)n2)[C@H]1O", "Insoluble"),
    ("CO[C@@H]1O[C@H](CO)[C@H](O)[C@H](OCc2cc(-c3cccc(Cl)c3)nc(N)n2)[C@H]1O", "Insoluble"),
    ("CO[C@@H]1O[C@H](CO)[C@H](O)[C@H](OCc2cc(-c3ccccc3)nc(N)n2)[C@H]1O", "Insoluble"),
    ("CO[C@@H]1O[C@H](CO)[C@H](O)[C@H](OCc2cc(-c3ccc(C(C)(C)C)cc3)nc(N)n2)[C@H]1O", "Insoluble"),
    ("CO[C@@H]1O[C@H](CO)[C@H](O)[C@H](OCc2cc(-c3cccc4ccccc34)nc(N)n2)[C@H]1O", "Insoluble"),
    ("CO[C@@H]1O[C@H](CO)[C@H](O)[C@H](OCc2cc(-c3ccc(C)cc3)nc(N)n2)[C@H]1O", "Insoluble"),
    ("CO[C@@H]1O[C@H](CO)[C@H](O)[C@H](OCc2cc(-c3cccc(-c4ccccc4)c3)nc(N)n2)[C@H]1O", "Insoluble"),
    ("CO[C@@H]1O[C@H](CO)[C@H](O)[C@H](OCc2cc(-c3ccc(Br)cc3)nc(N)n2)[C@H]1O", "Insoluble"),
    ("CO[C@@H]1O[C@H](CO)[C@H](O)[C@H](OCc2cc(-c3ccc4ccccc4c3)nc(N)n2)[C@H]1O", "Insoluble"),
    ("CO[C@@H]1O[C@H](CO)[C@H](O)[C@H](OCc2cc(-c3ccccc3F)nc(N)n2)[C@H]1O", "Insoluble"),
    ("CO[C@@H]1O[C@H](CO)[C@H](O)[C@H](OCc2cc(-c3ccc(Cl)cc3)nc(N)n2)[C@H]1O", "Insoluble"),
    ("CO[C@@H]1O[C@H](CO)[C@H](O)[C@H](OCc2cc(-c3cccc(C)c3)nc(N)n2)[C@H]1O", "Insoluble"),
    ("CO[C@@H]1O[C@H](CO)[C@H](O)[C@H](OCc2cc(-c3ccc(F)cc3)nc(N)n2)[C@H]1O", "Insoluble"),
    ("CO[C@@H]1O[C@H](CO)[C@H](O)[C@H](OCc2cc(-c3ccc(-c4ccccc4)cc3)nc(N)n2)[C@H]1O", "Insoluble"),
]
